Entries and their tissue uptake at 72 h
# assay protocol: in vivo
# Parameters: species or system mice
# assay context: male, NODSCID 1L2RγKO, mouse, iv, total radioactivity, Seminal uptake
Give your result in %ID/g as a bare value.

stdin: Form field: reported tissue uptake at 72 h of O=C(O)CCC[C@H](NC(=O)N[C@@H](CCCCNC(=O)[C@H](Cc1c2ccccc2cc2ccccc12)NC(=O)[C@H]1CC[C@H](CNC(=O)[C@H](CCCCNC(=O)CN2CCN(CC(=O)O)CCN(CC(=O)O)CCN(CC(=O)O)CC2)NC(=O)CNC(=O)CCCc2ccc(Cl)cc2)CC1)C(=O)O)C(=O)O [177Lu-HTK03153, metal not drawn]
stdout: 0.23

stdin: Queued: O=C(O)CCC[C@H](NC(=O)N[C@@H](CCCCNC(=O)[C@H](Cc1c2ccccc2cc2ccccc12)NC(=O)[C@H]1CC[C@H](CNC(=O)CN2CCN(CC(=O)O)CCN(CC(=O)O)CCN(CC(=O)O)CC2)CC1)C(=O)O)C(=O)O [177Lu-HTK03149, metal not drawn]
stdout: 0.03

----------
Entries and their tissue uptake at 1 h
# assay protocol: in vivo
# assay context: male, NODSCID 1L2RγKO, mouse, iv, total radioactivity, Salivary uptake

# compound, tissue uptake at 1 h
records = [
    ("O=C(O)CCC[C@H](NC(=O)N[C@@H](CCCCNC(=O)[C@H](Cc1cccc(I)c1)NC(=O)[C@H]1CC[C@H](CNC(=O)CN2CCN(CC(=O)O)CCN(CC(=O)O)CCN(CC(=O)O)CC2)CC1)C(=O)O)C(=O)O [68Ga-HTK04053, metal not drawn]", "0.06 %ID/g"),
    ("O=C(O)CCC[C@H](NC(=O)N[C@@H](CCCCNC(=O)[C@H](Cc1c2ccccc2cc2ccccc12)NC(=O)Cc1cccc(CNC(=O)CN2CCN(CC(=O)O)CCN(CC(=O)O)CCN(CC(=O)O)CC2)c1)C(=O)O)C(=O)O [68Ga-HTK04037, metal not drawn]", "0.14 %ID/g"),
    ("O=C(O)CCC[C@H](NC(=O)N[C@@H](CCCCNC(=O)[C@H](Cc1c2ccccc2cc2ccccc12)NC(=O)c1ccc(NC(=O)CN2CCN(CC(=O)O)CCN(CC(=O)O)CCN(CC(=O)O)CC2)cc1)C(=O)O)C(=O)O [68Ga-HTK04041, metal not drawn]", "0.26 %ID/g"),
]

stdin: Form field: reported tissue uptake at 1 h of O=C(O)COC[C@H](NC(=O)N[C@@H](CCCCNC(=O)[C@H](Cc1c2ccccc2cc2ccccc12)NC(=O)[C@H]1CC[C@H](CNC(=O)CN2CCN(CC(=O)O)CCN(CC(=O)O)CCN(CC(=O)O)CC2)CC1)C(=O)O)C(=O)O [68Ga-HTK03187, metal not drawn]
stdout: 0.16 %ID/g

stdin: Queued: O=C(O)CN1CCN(CC(=O)O)CCN(CC(=O)NC[C@H]2CC[C@H](C(=O)N[C@@H](Cc3c4ccccc4cc4ccccc34)C(=O)NCCCC[C@H](NC(=O)N[C@@H](C[C@@H](F)C(=O)O)C(=O)O)C(=O)O)CC2)CCN(CC(=O)O)CC1 [68Ga-HTK04033, metal not drawn]
stdout: 0.13 %ID/g

----------
# assay protocol: in vivo
# Design: species or system mice
# assay context: male, NODSCID 1L2RγKO, mouse, iv, total radioactivity, Tumor uptake
measured quantity: tissue uptake at 24 h (%ID/g)
Give your result in %ID/g as a bare value.

stdin: Form field: reported tissue uptake at 24 h of COc1ccc(CCCC(=O)NCC(=O)N[C@@H](CCCCNC(=O)CN2CCN(CC(=O)O)CCN(CC(=O)O)CCN(CC(=O)O)CC2)C(=O)NC[C@H]2CC[C@H](C(=O)N[C@@H](Cc3c4ccccc4cc4ccccc34)C(=O)NCCCC[C@H](NC(=O)N[C@@H](COCC(=O)O)C(=O)O)C(=O)O)CC2)cc1 [177Lu-HTK04028, metal not drawn]
stdout: 30.2

stdin: Queued: O=C(O)CCC[C@H](NC(=O)N[C@@H](CCCCNC(=O)[C@H](Cc1c2ccccc2cc2ccccc12)NC(=O)[C@H]1CC[C@H](CNC(=O)[C@H](CCCCNC(=O)CN2CCN(CC(=O)O)CCN(CC(=O)O)CCN(CC(=O)O)CC2)NC(=O)CNC(=O)CCCc2ccc(Cl)cc2)CC1)C(=O)O)C(=O)O [177Lu-HTK03153, metal not drawn]
stdout: 57.2

stdin: Queued: COc1ccc(CCCC(=O)NCC(=O)N[C@@H](CCCCNC(=O)CN2CCN(CC(=O)O)CCN(CC(=O)O)CCN(CC(=O)O)CC2)C(=O)NC[C@H]2CC[C@H](C(=O)N[C@@H](Cc3c4ccccc4cc4ccccc34)C(=O)NCCCC[C@H](NC(=O)N[C@@H](CSCC(=O)O)C(=O)O)C(=O)O)CC2)cc1 [177Lu-HTK04048, metal not drawn]
stdout: 54.3
